Tested on: Hela cells
Assay Comment: Tumor cell growth inhibition, Hela cells
Format: cell-based
Condition Summary: Human Cervical Adenocarcinoma
Each record here notes measured IC50.
Answer with a number only, understood to be in µM.

Here CCOC(=O)[C@]1(c2ccccc2)N=C(c2ccccc2)N(Cc2ccccc2)[C@@H]1c1ccccc1 [TCH-013] was tested on Hela cells, and its IC50 came to 10

Tested on Hela cells: CCOC(=O)[C@]1(c2ccccc2)N=C(c2ccc(OC)cc2)N(Cc2ccccc2)[C@@H]1c1ccc(NCc2ccccc2)cc1 [TCH-165] . Observed IC50: 7.94

* * *

pIC50 by entry:
System: hOS Saos2
Assay Comment: Tumor cell growth inhibition, hOS Saos2
Assay type: cell-based
Condition Summary: SAOS-2; Human Osteosarcoma cell line hOS Saos2
# reply with the number alone; pIC50 is -log10 of concentration in mol/L

Smiles Record: CCOC(=O)[C@]1(c2ccccc2)N=C(c2ccccc2)N(Cc2ccccc2)[C@@H]1c1ccccc1
Value Observed: 5.30

Entry CCOC(=O)[C@]1(c2ccccc2)N=C(c2ccc(OC)cc2)N(Cc2ccccc2)[C@@H]1c1ccc(NCc2ccccc2)cc1 : pIC50 on hOS Saos2 = 5.50

* * *

System: HS DH82
Assay Comment: Tumor cell growth inhibition, HS DH82
Assay type: cell-based
Condition Summary: Canis lupus familiaris; Canine Histiocytic Sarcoma cell line HS DH82
Assay Endpoint: IC50 (µM)
Numeric only. Scale: µM

Compound: CCOC(=O)[C@]1(c2ccccc2)N=C(c2ccc(OC)cc2)N(Cc2ccccc2)[C@@H]1c1ccc(NCc2ccccc2)cc1 [TCH-165]
Assay Endpoint: IC50
Unit Of Measurement: µM
Value Observed: 2

Now for the compound whose IC50 we want.
The compound CCOC(=O)[C@]1(c2ccccc2)N=C(c2ccccc2)N(Cc2ccccc2)[C@@H]1c1ccccc1 [TCH-013] showed IC50 equal to 10

* * *

Test system: Fel SCC2
Assay Comment: Tumor cell growth inhibition, Fel SCC2
Format: cell-based
Condition Summary: Felis catus, SCC-2; Feline Squamous Cell Carcinoma cell line Fel SCC2
IC50 overview
Record the value in µM, omitting the unit from your answer.

Smiles Record: CCOC(=O)[C@]1(c2ccccc2)N=C(c2ccccc2)N(Cc2ccccc2)[C@@H]1c1ccccc1
IC50 [µM]: 200

// sample CCOC(=O)[C@]1(c2ccccc2)N=C(c2ccc(OC)cc2)N(Cc2ccccc2)[C@@H]1c1ccc(NCc2ccccc2)cc1 , its IC50 was 25.1

* * *

IC50 for assorted compounds
Test system: cOS Ginger
Assay Comment: Tumor cell growth inhibition, cOS Ginger
Format: cell-based
Condition Summary: Canis lupus familiaris; Canine Osteosarcoma cell line cOS Ginger

Smiles Record: CCOC(=O)[C@]1(c2ccccc2)N=C(c2ccccc2)N(Cc2ccccc2)[C@@H]1c1ccccc1
Assayed Target: cOS Ginger
Assay Endpoint: IC50
Value Observed: 3.16 µM

Now take the following compound into account.
Lab entry: cOS Ginger assay, compound CCOC(=O)[C@]1(c2ccccc2)N=C(c2ccc(OC)cc2)N(Cc2ccccc2)[C@@H]1c1ccc(NCc2ccccc2)cc1 , IC50 = 7.94 µM
